Values compiled from patent US20140135310A1.

- TEST_TARGET: 5-HT1A receptor (rat hippocampus) (Rattus norvegicus)
- Construct: hippocampus; from tissue; host or cells: rat hippocampus
- Sequence (P19327 1-422): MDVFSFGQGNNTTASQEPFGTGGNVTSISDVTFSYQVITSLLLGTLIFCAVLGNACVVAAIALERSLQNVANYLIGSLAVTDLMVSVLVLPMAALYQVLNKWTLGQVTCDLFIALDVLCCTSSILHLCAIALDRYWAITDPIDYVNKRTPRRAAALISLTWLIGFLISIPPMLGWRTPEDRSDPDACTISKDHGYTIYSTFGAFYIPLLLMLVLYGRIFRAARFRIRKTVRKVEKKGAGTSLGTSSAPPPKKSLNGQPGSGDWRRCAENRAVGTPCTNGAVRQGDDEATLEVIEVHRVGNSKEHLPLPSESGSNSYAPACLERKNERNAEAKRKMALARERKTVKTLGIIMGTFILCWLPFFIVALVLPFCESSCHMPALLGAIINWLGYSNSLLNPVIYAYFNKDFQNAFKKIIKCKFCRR
- TEST_SUMMARY: Radioligand binding assay, serotoninergic 5-HT1A receptors
- STUDY_CONDITIONS: binding assay result in %, Table 5a
- Excerpt: The specific ligand binding to the receptors is defined as the difference between the total binding and the non-specific binding determined in the presence of the excess of unlabelled ligand. The results are expressed as a percent of control specific binding ((measured specific binding/control specific binding)×100) and as a percent inhibition of control specific binding (100−((measured specific binding/control specific binding)×100)) obtained in the presence of the test compounds. […]
MEASURED_PARAMETER: inhibition at 1 µM (%)
Numeric only. Scale: %

Worked examples follow.
O=S(=O)(NC1CCN(CCCc2noc3cc(F)ccc23)CC1)c1cccc2ccccc12 | 32
O=S(=O)(NCC1CCN(CCOc2cccc3c2OCCO3)C1)c1ccc(Cl)c(Cl)c1 (stereo not shown) | 96
Cc1c(S(=O)(=O)NCC2CN(CCOc3cccc4ccccc34)C2)sc2ccc(Cl)cc12 | 75

Q. Tell me reported inhibition at 1 µM for O=S(=O)(NCC1CN(CCOc2cccc3c2OCCO3)C1)c1ccc(C(F)(F)F)cc1 , tested with 5-HT1A receptor (rat hippocampus) (Rattus norvegicus).
A. 93
